Target: T1, I-OnuI wild type (OnuWT) (Ophiostoma novo-ulmi)
T1 chain: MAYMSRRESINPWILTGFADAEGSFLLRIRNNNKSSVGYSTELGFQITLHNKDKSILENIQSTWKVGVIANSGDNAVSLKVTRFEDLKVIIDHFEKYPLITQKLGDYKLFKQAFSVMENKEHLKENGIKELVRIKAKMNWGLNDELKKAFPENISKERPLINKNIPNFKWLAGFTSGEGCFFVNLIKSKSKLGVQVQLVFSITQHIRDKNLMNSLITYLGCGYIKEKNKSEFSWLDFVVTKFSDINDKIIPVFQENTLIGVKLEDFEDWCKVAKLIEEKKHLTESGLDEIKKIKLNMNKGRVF
Assay: flow; yeast surface display titration
Settings: label: Alexa Fluor 647
Reported property: Kd

>  <Binder>
I-OnuI native target (dsDNA) DNA 1: TTTCCACTTATTCAACCTTTTA DNA 2: TAAAAGGTTGAATAAGTGGAAA

>  <Value>
~0.08 nM

$$$$
